test: yeast display, Sf9 membrane polyspecificity reagent, FACS + sequencing; frameworks hold sequencing errors
measurement-type: polyreactivity (PSR sort gate)

# count of solved cases: 4
macromolecule-sequence: QVQLVESGGCLVQGGGSLRLTWAASGRTFPYNNMRRYRQAPGKERELVASITYTDGSTSYADCVKGRFTISRDNAKNTVYLQMNSLKPQDTADYYCAAVYYAHQDYRFDYWGQGTQVTVSS
measurement-type: polyreactivity (PSR sort gate)
endpoint-result: low polyreactivity
//
macromolecule-sequence: QVQLVESGGGLVQAGGSHRLSCAASGNTFYDYAMGWYRQAPGKERELVAAISSDGNTYYADSVKGRFTFSRDNAKKTVYLQMNSLKPVDTAVYYCAADAWRYYYLSWFGSIGFDYWGQGTQVTVSS
measurement-type: polyreactivity (PSR sort gate)
endpoint-result: high polyreactivity
//
macromolecule-sequence: QVQLVESGGGLVQAGGSLRLSCAASGSTFTGYAMAWYRQAPGKERELVAAISSDGGSTYYADSVKGRFTMSRDNAKNTVYLQMNSLKPEDTAVYYCAALVYVSGYGYYYWGQGTQVTVSS
measurement-type: polyreactivity (PSR sort gate)
endpoint-result: high polyreactivity
//
macromolecule-sequence: QVQLVESGGGLVQAGGSLSLSCAASGRTFVYYAMGWYRQAPGKERELVAAISSSGGRTYYADSVKGRFTISRDNAKNTVYLQMNSLKPEDTAVYYCAARRLSPIYDSWGQGTQVTVSS
measurement-type: polyreactivity (PSR sort gate)
endpoint-result: high polyreactivity

Just so you know, measured polyreactivity (PSR sort gate) for QVQLVESGGGLVQAGGSLRLSCAASGSILKNNAMGWYRLAPGKERELVAAITYSSGSTYYADSVKGRFTISRDNAKNTVYLQMNSLKPEDTAVYYCAAVYRYRYSFSGGYYWGQGTQVTVSS came out at low polyreactivity

----------
assay: yeast display, Sf9 membrane polyspecificity reagent, FACS + sequencing; frameworks hold sequencing errors

macromolecule-sequence: QVQLVESGGGLVQAGGSLRLSCAASGNIFFVYDMGWYRQSPGKERELVAAISWSGGSTYADSVKGRFTISRDNAKNTVYLQMNSLKPEDTAVYYCNAQGYRYRIGYDYWGQGTQVTVSS
polyreactivity (PSR sort gate): low polyreactivity
--
macromolecule-sequence: QVQLVESGGGLVQAGGSLRLSCAASGSTGWYDRGWYRQAPGKERELVASISSGDSTNYADSVKGRFTISRDNAKNTVYLQMNSLKPEDTAVYYCAADFNVGFVWGDDYDYWGQGTQVTVSS
polyreactivity (PSR sort gate): low polyreactivity

----------
assay: yeast display, Sf9 membrane polyspecificity reagent, FACS + sequencing; frameworks hold sequencing errors

macromolecule-sequence: QVQLVESGGGLVQAGGSLRLSCAASGGTGARNAMGWYRQAPGKERELVATITRRAGTTYYADSVKGRFTISRDNAKNTVYLQMNSLKPEDTAVYYCARVATWGYYPYLIPEVGYDYWGQGTQVTVSS
polyreactivity (PSR sort gate): high polyreactivity
//
macromolecule-sequence: QVQLVESGGGLVQAGGSLRLSCAASGFTFYGYAMGWYRQAPGKERELVAAITSGGSTNYADSVKGRFTISRDNAKNTVYLQMNSLKPEDTAVYYCAASPSYWYLYVNYSYDYWGQGTQVTVSS
polyreactivity (PSR sort gate): high polyreactivity
//
macromolecule-sequence: QVQLVESGGGLVQAGGSLSLSCAASGRTLYVYTMGWYRQAPGKERELVASISSGVGTNYADSVKGRFTISRDNAKNTDYLQMNSLKPEDTAVYYCAARFRYYRHYYWGQGTQVTVSS
polyreactivity (PSR sort gate): high polyreactivity

----------
assay: yeast display, Sf9 membrane polyspecificity reagent, FACS + sequencing; frameworks hold sequencing errors
measurement-type: polyreactivity (PSR sort gate)

macromolecule-sequence: QFQLVESGGGLVQAGGSLRLSCAASGRTLSSYDMGWYRQAPGKERELVAAISRGGSTYYADSVKGRFTISRDNAKNTVYLQMNSLKPEDTAVYYCAASFYGGYWGYDYWGQGTQVTVSS
endpoint-result: high polyreactivity

macromolecule-sequence: QVQLVESGGGLVQAGGSLRLSCAASGITFWYNAMGWYRQAPGKERELVAAISGGGGSTYYADSVKGRFTISRDNAMNTVYLQMNSLKPEDTAVYYCAARQVARVYSGRYGYWGQGTQVTVSS
endpoint-result: high polyreactivity

----------
assay: yeast display, Sf9 membrane polyspecificity reagent, FACS + sequencing; frameworks hold sequencing errors
measurement-type: polyreactivity (PSR sort gate)

# count of solved cases: 5
macromolecule-sequence: QVQLVESGGGLVQAGVSLRLSCAASGIIFRGNAMGWYRQAPGKERELVASICRRGGSTYYADSVKGRFTISRDNAKNTVYLQMNSLKPEDTAVYYCNAYGSTYVYGPYDYWGQGTQVTVSS
endpoint-result: high polyreactivity
--
macromolecule-sequence: QVQLEESGGGLVQAGGSLRLSCAASGRIFATNAMGWYRPAPATERELVAAISSSGGPTYYADSVKGRFTISRDNAKNTVYLQMNSLIREATAVYYCARVPITNDQYSHYYYWGQGTQVTVSS
endpoint-result: high polyreactivity
--
macromolecule-sequence: QVQLVESGGGLVQAGGSLRLSCAASGSTFQGYAMGWYRQAPGKERELVAAISWNGGSTYYADSVKGRFTISRDNAKNTVYLQMNSLKPEDTAVYYCAAYSFAYRFNYWGQGTQVTVSS
endpoint-result: high polyreactivity
--
macromolecule-sequence: QVQLVESGGGLVQAGGSLRLSCAASGGTISRYGMGWYRPAPRKERELVAAITRSGSTNYADSVKERFTISRDNAKYTVYLQMNSLKPEDTAVYYGATDKRGRIGGTFDYWGQGTQVTVSS
endpoint-result: low polyreactivity
--
macromolecule-sequence: QVQLVESGGGLVQAGGSLRLSCAASGRTFARYDKGWYRQAPGKERELVAGINGDGGSTNYADSVKGRFTISRDNAKNTVYLQMNSLKPEDTAVFYCNVDQEDRKLHVSIKQLSDHWGQGTQVTVSS
endpoint-result: low polyreactivity

Report polyreactivity (PSR sort gate) for each item below.
1. QVQLVESGGGLVQAGGSLRLSCAASGSTLVQYVMGWYRQAPGKERELVAAISGSGGSTYYADSVKGRFTISRDNAKNTVYLQMNSLKPEDTAVYYCAASRRSGYGYWGQGTQVTVSS
2. QVQLVESGGGLVQAGGSVRLSCAASGSIFNANTMGWYRQAPGKERELVAVITSGGTTNYADSVKGRFTISRDNAKNTVYLQMNSLKPEDTAVYYCAVRISGNWYDYWGQGTQVTVSS
3. QVQLQESGGGLMQAGGSQRLSCAASGSISYYSDMGWYRQSPGKEREFVAGIGYGTTTNYADSVKGRFTTSRDNAKNTVYLQMISMKPEDTAVYYCAAYQGNGYEFYYWGQGTQVTVRS
4. QVQLVESGGGLVQAGGSLRLSCAASGSTFPFNAMGWYRQAPGKERELVAGIRSRGGSTYYADSVKGRFTISRDNAKNTVYLQMNSLIPEDTAVSSCAKVYKDRDDLFYYWGQGTQVTVSS
5. QVQLVESGGGLVQAGGSLRLSCAASGFIFASYARGWYRQAPGKERELVAAISSSGGSTYADSVKGRFTISRDNAKNTVYLQMNSLKPEDTAVYYCAAQGYGDNRNKYYYWGQGTQVTISS
6. QVQLVESGGGLVQAGGSLRLSCAASGRTFAHYTMGWYRQEPGKERELVAGITRGGSTYYADSVKGRFTISRDNAKNNVYLQMNSVKPEDTAVYYCNAVTNYFYRRMEYWGQGTQVTVSS

["high polyreactivity", "low polyreactivity", "low polyreactivity", "low polyreactivity", "high polyreactivity", "high polyreactivity"]

Report polyreactivity (PSR sort gate) for each item below.
1. QVQLVESGGGLVQAGGSLRLSCAASGRTFRDNAMGWYRQAPGKERELVAAISWSGGSTYYADSVKGRFTISRDNAKNTVYLQMNSLKPEDTAVYYCAASGYYRYTPFRYDHWGQGTQVTVSS
2. QVQLVESGGGLVQAGGSLRLSCAASGFIFYGYDMGWYRQAPGKETELVASISVRGGDTYYADSVKGRFTISRDNAKNTVYLQMNSLKPEDTAVYDCNAEGYPGRFSYGVVYGDVGYDYWGQGTQVTVSS
3. QVQLVESGGGLVQAGGSLRLSCAASGFTFSPYAMGWYRQAPGKERELVAAISSSGGSTYYADSVKGRFTISRDNAKNTVYLQMNSLKPEDTAVYYCATQGTRRPGKFYYWGQGTQVTVSS

1. low polyreactivity
2. low polyreactivity
3. high polyreactivity

----------
assay: yeast display, Sf9 membrane polyspecificity reagent, FACS + sequencing; frameworks hold sequencing errors
measurement-type: polyreactivity (PSR sort gate)

macromolecule-sequence: QVQLVESGGGLVQAGGSLRLSCAATGSIYSYAMGWNRQAPGKERELVAAISRSGGRTYYADSVKGRFTISRDNAKNTVYLQMNSLKPEDTAVYYCAADGYSAKYYPGGDYWGQGTQVTVSS
polyreactivity (PSR sort gate): high polyreactivity
//
macromolecule-sequence: QVQLVESGGGLVQAGGSLRLSCAASGLIFSSYAMGWYSQAPGKERELVAAITSGGNTNYADSVKGRFTISRDNAKNTVYLHMNSLKPEDTAVYYCSAVWWTYVAAPGYDYWGQGTQVTVSS
polyreactivity (PSR sort gate): low polyreactivity
//
macromolecule-sequence: QDQLVESGGGLVQAGGSLRLSCAASGSIFKYNMGWYRQAPGKERELVAAISRGGSTYYADSVKGRFTISRDNAKNTVYLQMTRLKPEDTAVYYCNAATSRRFSGMNYCGQGTQVTVSS
polyreactivity (PSR sort gate): high polyreactivity
//
macromolecule-sequence: QVQLVESGGGLVQAGGSRRLSCAASGITFGWYAMGWYRQAPGKEMEWVATISQSGTSTYYADSVKGRFTISRDNAKNTVYLKMISLKPEDTAFYYCAADYIRGYYFRVRLEVDYWGQGTQVTVSS
polyreactivity (PSR sort gate): low polyreactivity
//
macromolecule-sequence: QVQHVESGGGIVQAGGSLRLSCAASGFTFWYYAMGWYRQAPGKERELVAVINTSGGSTYADSVKGRFTISRDNAKNTVFLQMNSLKPEDTAVYYCNKDFIYGYDAASYRPEYDYWGQGTQVTVSS
polyreactivity (PSR sort gate): low polyreactivity
//
macromolecule-sequence: QVQLVESGGGLVKAGGSLRLSCAASGSTFVGYAMGWYRQAPGKEREIVAAITRGGSTNYADSVKGRFTISRDNAKNTVYLQMNSLKPEDTAVYYCAARDRREGFNFDYWGQGTQVTVSS
polyreactivity (PSR sort gate): low polyreactivity

Now look at this entry.
Just so you know, measured polyreactivity (PSR sort gate) for QVQLVESGGGLVQAGGSLRLSCAASGFIFARYAMGWYRQAPGKERELVAAISWSGARTYYADSVKGRFTISRDNAKNTVYLQMNSLKPEDTAVYYCNADYRKVTGDSYDYWGQGTQVTVSS came out at high polyreactivity

// data source = the nanobody polyreactivity screen of Harvey et al. (2022)
